These data points were gathered from BigSolDB 2.1.

settings: in n-butanol, 293.15 K
measured.property: solubility (mole fraction)

Lookup: Fill in solubility (mole fraction) for record `c1cc(-n2c3ccccc3c3ccccc32)cc(-n2c3ccccc3c3ccccc32)c1`
Found: 0.00017

---

details: in NMP, 293.15 K
measured.property: solubility (mole fraction)

Lookup: Fill in solubility (mole fraction) for record `c1cc(-n2c3ccccc3c3ccccc32)cc(-n2c3ccccc3c3ccccc32)c1`
Found: 0.0702

---

conditions: in isopropanol, 313.15 K
measured.property: solubility (mole fraction)
Would you mind answering with just the numeric figure?

Lookup: Fill in solubility (mole fraction) for record `c1cc(-n2c3ccccc3c3ccccc32)cc(-n2c3ccccc3c3ccccc32)c1`
Found: 0.00011

---

details: in DMSO, 323.15 K
measured.property: solubility (mole fraction)
Would you mind answering with just the numeric figure?

Lookup: Fill in solubility (mole fraction) for record `c1cc(-n2c3ccccc3c3ccccc32)cc(-n2c3ccccc3c3ccccc32)c1`
Found: 0.00505

---

conditions: in THF, 313.15 K
measured.property: solubility (mole fraction)
Would you mind answering with just the numeric figure?

Lookup: Fill in solubility (mole fraction) for record `c1cc(-n2c3ccccc3c3ccccc32)cc(-n2c3ccccc3c3ccccc32)c1`
Found: 0.0792

---

settings: in ethyl acetate, 303.15 K
measured.property: solubility (mole fraction)
Would you mind answering with just the numeric figure?

Lookup: Fill in solubility (mole fraction) for record `c1cc(-n2c3ccccc3c3ccccc32)cc(-n2c3ccccc3c3ccccc32)c1`
Found: 0.00827

---

conditions: in methanol, 313.15 K
measured.property: solubility (mole fraction)
Would you mind answering with just the numeric figure?

Lookup: Fill in solubility (mole fraction) for record `c1cc(-n2c3ccccc3c3ccccc32)cc(-n2c3ccccc3c3ccccc32)c1`
Found: 0.000108

---

settings: in ethyl acetate, 283.15 K
measured.property: solubility (mole fraction)
Would you mind answering with just the numeric figure?

Lookup: Fill in solubility (mole fraction) for record `c1cc(-n2c3ccccc3c3ccccc32)cc(-n2c3ccccc3c3ccccc32)c1`
Found: 0.00426

---

settings: in n-butanol, 313.15 K
measured.property: solubility (mole fraction)
Would you mind answering with just the numeric figure?

Lookup: Fill in solubility (mole fraction) for record `c1cc(-n2c3ccccc3c3ccccc32)cc(-n2c3ccccc3c3ccccc32)c1`
Found: 0.000318

---

conditions: in ethanol, 303.15 K
measured.property: solubility (mole fraction)
Would you mind answering with just the numeric figure?

Lookup: Fill in solubility (mole fraction) for record `c1cc(-n2c3ccccc3c3ccccc32)cc(-n2c3ccccc3c3ccccc32)c1`
Found: 0.000802

---

settings: in n-hexane, 293.15 K
measured.property: solubility (mole fraction)
Would you mind answering with just the numeric figure?

Lookup: Fill in solubility (mole fraction) for record `c1cc(-n2c3ccccc3c3ccccc32)cc(-n2c3ccccc3c3ccccc32)c1`
Found: 0.000259

---

conditions: in DMSO, 293.15 K
measured.property: solubility (mole fraction)

Lookup: Fill in solubility (mole fraction) for record `c1cc(-n2c3ccccc3c3ccccc32)cc(-n2c3ccccc3c3ccccc32)c1`
Found: 0.00436

---

conditions: in n-hexane, 303.15 K
measured.property: solubility (mole fraction)
Would you mind answering with just the numeric figure?

Lookup: Fill in solubility (mole fraction) for record `c1cc(-n2c3ccccc3c3ccccc32)cc(-n2c3ccccc3c3ccccc32)c1`
Found: 0.000342

---

conditions: in methanol, 303.15 K
measured.property: solubility (mole fraction)
Would you mind answering with just the numeric figure?

Lookup: Fill in solubility (mole fraction) for record `c1cc(-n2c3ccccc3c3ccccc32)cc(-n2c3ccccc3c3ccccc32)c1`
Found: 9.66e-05

---

settings: in THF, 303.15 K
measured.property: solubility (mole fraction)
Would you mind answering with just the numeric figure?

Lookup: Fill in solubility (mole fraction) for record `c1cc(-n2c3ccccc3c3ccccc32)cc(-n2c3ccccc3c3ccccc32)c1`
Found: 0.0598

---

details: in toluene, 303.15 K
measured.property: solubility (mole fraction)
Would you mind answering with just the numeric figure?

Lookup: Fill in solubility (mole fraction) for record `c1cc(-n2c3ccccc3c3ccccc32)cc(-n2c3ccccc3c3ccccc32)c1`
Found: 0.0336

---

details: in toluene, 293.15 K
measured.property: solubility (mole fraction)
Would you mind answering with just the numeric figure?

Lookup: Fill in solubility (mole fraction) for record `c1cc(-n2c3ccccc3c3ccccc32)cc(-n2c3ccccc3c3ccccc32)c1`
Found: 0.0316

---

conditions: in n-hexane, 313.15 K
measured.property: solubility (mole fraction)
Would you mind answering with just the numeric figure?

Lookup: Fill in solubility (mole fraction) for record `c1cc(-n2c3ccccc3c3ccccc32)cc(-n2c3ccccc3c3ccccc32)c1`
Found: 0.000381

---

conditions: in DMSO, 313.15 K
measured.property: solubility (mole fraction)
Would you mind answering with just the numeric figure?

Lookup: Fill in solubility (mole fraction) for record `c1cc(-n2c3ccccc3c3ccccc32)cc(-n2c3ccccc3c3ccccc32)c1`
Found: 0.00472

---

conditions: in isopropanol, 303.15 K
measured.property: solubility (mole fraction)
Would you mind answering with just the numeric figure?

Lookup: Fill in solubility (mole fraction) for record `c1cc(-n2c3ccccc3c3ccccc32)cc(-n2c3ccccc3c3ccccc32)c1`
Found: 6.95e-05

---

conditions: in dichloromethane, 273.15 K
measured.property: solubility (mole fraction)
Would you mind answering with just the numeric figure?

Lookup: Fill in solubility (mole fraction) for record `c1cc(-n2c3ccccc3c3ccccc32)cc(-n2c3ccccc3c3ccccc32)c1`
Found: 0.0949

---

details: in acetonitrile, 283.15 K
measured.property: solubility (mole fraction)
Would you mind answering with just the numeric figure?

Lookup: Fill in solubility (mole fraction) for record `c1cc(-n2c3ccccc3c3ccccc32)cc(-n2c3ccccc3c3ccccc32)c1`
Found: 0.000243

---

settings: in methanol, 283.15 K
measured.property: solubility (mole fraction)
Would you mind answering with just the numeric figure?

Lookup: Fill in solubility (mole fraction) for record `c1cc(-n2c3ccccc3c3ccccc32)cc(-n2c3ccccc3c3ccccc32)c1`
Found: 4.36e-05

---

conditions: in n-hexane, 283.15 K
measured.property: solubility (mole fraction)

Lookup: Fill in solubility (mole fraction) for record `c1cc(-n2c3ccccc3c3ccccc32)cc(-n2c3ccccc3c3ccccc32)c1`
Found: 0.000183

---

conditions: in dichloromethane, 293.15 K
measured.property: solubility (mole fraction)
Would you mind answering with just the numeric figure?

Lookup: Fill in solubility (mole fraction) for record `c1cc(-n2c3ccccc3c3ccccc32)cc(-n2c3ccccc3c3ccccc32)c1`
Found: 0.112
